systemTested: Kappa-type opioid receptor (Homo sapiens, UniProt P41145)
Sequence (P41145 whole entry): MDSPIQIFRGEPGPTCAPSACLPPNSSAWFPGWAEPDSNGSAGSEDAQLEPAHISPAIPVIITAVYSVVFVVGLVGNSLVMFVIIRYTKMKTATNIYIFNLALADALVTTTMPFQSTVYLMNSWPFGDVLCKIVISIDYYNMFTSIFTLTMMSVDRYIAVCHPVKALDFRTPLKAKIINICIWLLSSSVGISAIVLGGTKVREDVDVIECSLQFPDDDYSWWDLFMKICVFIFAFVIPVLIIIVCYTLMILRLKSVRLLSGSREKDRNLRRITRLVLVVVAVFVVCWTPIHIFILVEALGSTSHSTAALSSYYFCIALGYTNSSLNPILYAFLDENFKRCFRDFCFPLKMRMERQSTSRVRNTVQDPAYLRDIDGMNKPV
methodSummary: Displacement of [3H]diprenorphine from human cloned kappa opioid receptor expressed in CHO cells
Assay type: cell-based
pKi: −log10 of the molar value.
pKi for assorted compounds

>  <chemicalString>
C[C@H]1CN2CCN(Cc3ccccc3O)C[C@H]2C[C@@]1(C)c1cccc(O)c1

>  <systemTested>
Kappa-type opioid receptor (Homo sapiens, UniProt P41145)

>  <pKi>
7.12

$$$$
>  <chemicalString>
C[C@H]1CN2C[C@H](Cc3ccccc3)NC[C@H]2C[C@@]1(C)c1cccc(O)c1

>  <systemTested>
Kappa-type opioid receptor (Homo sapiens, UniProt P41145)

>  <pKi>
7.07

$$$$
>  <chemicalString>
C[C@H]1CN2CCN(Cc3cccc(Cl)c3)C[C@H]2C[C@@]1(C)c1cccc(O)c1

>  <systemTested>
Kappa-type opioid receptor (Homo sapiens, UniProt P41145)

>  <pKi>
7.08

$$$$
>  <chemicalString>
C[C@H]1CN2CCN(Cc3ccoc3)C[C@H]2C[C@@]1(C)c1cccc(O)c1

>  <systemTested>
Kappa-type opioid receptor (Homo sapiens, UniProt P41145)

>  <pKi>
6.92

$$$$

----------
systemTested: Kappa-type opioid receptor (Homo sapiens, UniProt P41145)
methodSummary: Antagonist activity assessed as inhibition of U50488-stimulated [35S]GTP-gamma-S binding to human kappa opioid receptor expressed in CHO cells
pIC50: −log10 of the molar value.
pIC50 for assorted molecules

>  <chemicalString>
C[C@H]1CN2C[C@H](C3CCCCC3)NC[C@H]2C[C@@]1(C)c1cccc(O)c1

>  <pIC50>
8.92

$$$$
>  <chemicalString>
C[C@H]1CN2C[C@H](c3ccccc3)N(Cc3ccccc3)C[C@H]2C[C@@]1(C)c1cccc(O)c1

>  <pIC50>
7.00

$$$$
>  <chemicalString>
C[C@H]1CN2CCN(Cc3ccccc3Cl)C[C@H]2C[C@@]1(C)c1cccc(O)c1

>  <pIC50>
8.00

$$$$
